experimental.system: mCTLA-4-Fc (R&D Systems) (mouse, UniProt P09793 36-162)
Sequence (P09793 whole entry): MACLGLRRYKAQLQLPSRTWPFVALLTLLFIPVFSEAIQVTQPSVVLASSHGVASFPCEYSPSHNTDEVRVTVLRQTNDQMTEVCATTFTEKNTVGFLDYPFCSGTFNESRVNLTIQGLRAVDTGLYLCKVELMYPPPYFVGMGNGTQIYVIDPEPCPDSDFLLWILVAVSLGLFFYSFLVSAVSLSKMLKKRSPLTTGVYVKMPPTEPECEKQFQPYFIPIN
test: SPR as in Example 9
Kindly supply the reported koff values for the records listed here.
Numbers only, in s⁻¹.

[[record]]
binder = "hNGAL mutein S140.2-P24 (designed binder, tagged entry not tied to the name; not shown: N-terminal T7 detection tag from vector phNGAL37; C-terminal Strep-tag II from vector phNGAL37) QDSTSDLIPAPPLSKVPLQQNFQDNQFHGKWYVVGLAGNRILRDDQHPMDMYATIYELKEDKSYNVTSVISSHKKCEYTIATFVPGSQPGEFTLGNIKSYGDKTSYLVRVVSTDYSQYAVVFFKLAEDNAEFFAITIYGRTKELASELKENFIRFSKSLGLPENHIVFPVPIDQCIDG"
endpoint_name = "koff"
val = 0.000705


// below: koff requested for another binder
Sample hNGAL mutein S140.3-P07 (designed binder, tagged entry not tied to the name; not shown: N-terminal T7 detection tag from vector phNGAL37; C-terminal Strep-tag II from vector phNGAL37) QDSTSDLIPAPPLSKVPLQQNFQDNQFHGKWYVVGLAGNRILRDDQHPMNMYATIYELKEDKSYNVTSVIFPHKKCEYTIATFVPGSQPGEFTLGNIKSYGDKTSYLVRVVSTDYNQYAVVFFKLAEDDAEFFAITIYGRTKELASELKENFIRFSKSLGLPENHIVFPVPIDQCIDG — what was its koff?
0.000666
